System: primary human total T-cells
METHOD DESCRIPTION: T-cell activation, IL-2 secretion, Biological Example 2
Type: cell-based
SETUP CONDITIONS: anti-CD3 and anti-CD28 co-stimulation, 48 hours, 0.3 μM inhibitor, fold change over baseline
Entries and their measured fold induction at 0.3 µM follow.

In [3]: df
Out[3]:
                                   compound  experimental_result
0  Cn1cnnc1C[C@]1(c2cccc(N3Cc4c(cc(CN5CCCCC(CO)C5)cc4C(F)(F)F)C3=O)c2)C[C@H](C#N)C1 (stereo partly shown)                 ≤ 15

*Q* Record lookup: for primary human total T-cells, what fold induction at 0.3 µM belongs to Cc1cc(C(=O)Nc2cccc([C@]3(Cc4nncn4C)C[C@H](C#N)C3)c2)nc(C2CC2)n1 ?
*A* ≤ 15

*Q* Form field: fold induction at 0.3 µM recorded for Cn1cnnc1C[C@]1(c2cccc(N3Cc4c(cc(CNC5CCC(C)(C)C5)cc4C(F)(F)F)C3=O)c2)C[C@H](C#N)C1 (stereo partly shown) with primary human total T-cells (enter value)
*A* > 20

*Q* Record COCC1COCCN(Cc2cc3c(c(C(F)(F)F)c2)CN(c2cccc([C@]4(Cc5nncn5C)C[C@@H](C#N)C4)c2)C3=O)C1 (stereo partly shown) : what is its fold induction at 0.3 µM with primary human total T-cells?
*A* ≤ 15

*Q* Write down the reported fold induction at 0.3 µM of Cn1cnnc1C[C@]1(c2cccc(N3Cc4c(cc(CN5CCC[C@H](C(F)(F)F)C5)nc4C4CC4)C3=O)c2)C[C@H](C#N)C1 , test system: primary human total T-cells.
*A* > 20

*Q* fold induction at 0.3 µM of CC1CCCCN(Cc2cc3c(c(C(F)(F)F)c2)CN(c2cccc([C@]4(Cc5nncn5C)C[C@@H](C#N)C4)c2)C3=O)C1 (stereo partly shown) on primary human total T-cells?
*A* > 20

*Q* What reported fold induction at 0.3 µM corresponds to Cn1cnnc1C[C@]1(c2cccc(N3Cc4c(cc(CN5CCC6(CC6)C5)cc4C(F)(F)F)C3=O)c2)C[C@H](C#N)C1 on primary human total T-cells?
*A* ≤ 15

*Q* Observed fold induction at 0.3 µM on primary human total T-cells for Cn1cnnc1C[C@]1(c2cccc(N3Cc4c(cc(CNC5CCC(F)(F)C5)nc4C4CC4)C3=O)c2)C[C@H](C#N)C1 (stereo partly shown) , please.
*A* ≤ 15

*Q* Find the measured fold induction at 0.3 µM: item Cn1cnnc1C[C@]1(c2cccc(N3Cc4c(cc(CN5CCCOCC5)cc4C(F)(F)F)C3=O)c2)C[C@H](C#N)C1 , target or system primary human total T-cells.
*A* ≤ 15

*Q* Can you look up fold induction at 0.3 µM on primary human total T-cells for CN(Cc1cc2c(c(C(F)(F)F)c1)CN(c1cccc([C@]3(Cc4nncn4C)C[C@@H](C#N)C3)c1)C2=O)C1CCC(F)(F)C1 (stereo partly shown) ?
*A* > 20

*Q* Fill in the recorded fold induction at 0.3 µM for this compound, with primary human total T-cells as test system: CC1CN(Cc2cc3c(c(C(F)(F)F)c2)CN(c2cccc([C@]4(Cc5nncn5C)C[C@@H](C#N)C4)c2)C3=O)CCCO1 (stereo partly shown)
*A* ≤ 15

*Q* Lab note: need fold induction at 0.3 µM with primary human total T-cells for entry CN(Cc1cc2c(c(C(F)(F)F)c1)CN(c1cccc([C@]3(Cc4nncn4C)C[C@@H](C#N)C3)c1)C2=O)C1CC(F)(F)C1 , please look it up.
*A* ≤ 15

*Q* Checklist item: fold induction at 0.3 µM tested on primary human total T-cells, entry C[C@H]1CCCN(Cc2cc(C(=O)Nc3cccc([C@]4(Cc5nncn5C)C[C@@H](C#N)C4)c3)nc(C3CC3)c2)C1 , value?
*A* > 20

*Q* Notebook entry, primary human total T-cells assay: fold induction at 0.3 µM of C[C@@H]1CN(Cc2cc3c(c(C(F)(F)F)c2)CN(c2cccc([C@]4(Cc5nncn5C)C[C@](C)(C#N)C4)c2)C3=O)CCO1 = ?
*A* ≤ 15

*Q* For primary human total T-cells, provide fold induction at 0.3 µM of Cn1cnnc1C[C@]1(c2cccc(N3Cc4c(cccc4C(F)(F)F)C3=O)c2)C[C@H](C#N)C1 please.
*A* ≤ 15

*Q* Please tell me: fold induction at 0.3 µM of Cn1cnnc1C[C@]1(c2cccc(N3Cc4c(cc(CN[C@@H]5CCC(F)(F)C5)cc4C(F)(F)F)C3=O)c2)C[C@H](C#N)C1 , system primary human total T-cells?
*A* > 20

---

Consider the following molecules and their measured IC50 readings.
STUDY SYSTEM: Cbl-b (Homo sapiens (Human), UniProt Q13191)
Sequence (Q13191 36-427): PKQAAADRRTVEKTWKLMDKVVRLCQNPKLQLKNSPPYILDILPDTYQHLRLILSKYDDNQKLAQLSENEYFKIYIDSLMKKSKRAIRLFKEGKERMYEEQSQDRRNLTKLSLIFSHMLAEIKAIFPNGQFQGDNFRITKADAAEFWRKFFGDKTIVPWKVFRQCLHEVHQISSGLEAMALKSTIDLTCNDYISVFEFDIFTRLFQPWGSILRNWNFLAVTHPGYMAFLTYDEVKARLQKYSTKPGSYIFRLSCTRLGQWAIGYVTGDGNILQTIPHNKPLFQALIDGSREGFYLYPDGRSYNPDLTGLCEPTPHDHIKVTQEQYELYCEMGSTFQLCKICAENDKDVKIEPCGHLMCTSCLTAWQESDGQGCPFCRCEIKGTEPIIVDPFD
METHOD DESCRIPTION: Cbl-b displacement assay (Cbl-b inhibition assay), Biological Example 1
Assay type: binding
SETUP CONDITIONS: 0.125 nM Cbl-b final concentration (Low); read-out: Cbl-b activity IC50 (Low)

MOLECULE	EXPERIMENTAL RESULT
Cn1cnnc1C[C@]1(c2cccc(N3Cc4c(cc(CN5CCCCC(CO)C5)cc4C(F)(F)F)C3=O)c2)C[C@H](C#N)C1 (stereo partly shown) [Compound 48]	1 to 2 nM

*Q* I would be grateful if you could share the reported IC50 for Cc1cc(C(=O)Nc2cccc([C@]3(Cc4nncn4C)C[C@@](C)(C#N)C3)c2)nc(C2CC2)n1 [Compound 8] .
*A* ≥ 20 nM

---

The following molecules are shown together with reported pIC50 values.
STUDY SYSTEM: Cbl-b (Homo sapiens (Human), UniProt Q13191)
METHOD DESCRIPTION: Cbl-b displacement assay (Cbl-b inhibition assay), Biological Example 12
Format: binding
SETUP CONDITIONS: 0.125 nM Cbl-b final concentration (Low), Table 7; read-out: Cbl-b IC50 (Low)
pIC50: −log10 of the molar value.

Consider the worked cases shown below.
                                        smi                              study_system  experimental_result
0  Cn1cnnc1C[C@]1(c2cccc(N3Cc4c(cc(CN[C@H]5CCC(F)(F)C5)cc4C(F)(F)F)C3=O)c2)C[C@H](C#N)C1  Cbl-b (Homo sapiens (Human), UniProt Q13191)               > 9.00
1  C[C@@H]1CN(Cc2cc(C(=O)Nc3cccc([C@]4(Cc5nncn5C)C[C@@H](C#N)C4)c3)nc(C3CC3)c2)CCO1  Cbl-b (Homo sapiens (Human), UniProt Q13191)               > 9.00
2  Cn1cnnc1C[C@]1(c2cccc(N3Cc4c(cc(CN5CCC6(CC6)C5)cc4C(F)(F)F)C3=O)c2)C[C@H](C#N)C1  Cbl-b (Homo sapiens (Human), UniProt Q13191)         8.30 to 9.00

*Q* Dear colleague, I am looking for the recorded pIC50 of the following molecule: Cn1cnnc1C[C@]1(c2cccc(N3Cc4c(cc(CN[C@@H]5CCC(F)(F)C5)cc4C(F)(F)F)C3=O)c2)C[C@H](C#N)C1
*A* > 9.00

*Q* Requested read-out: pIC50. Entry: C[C@H]1CCCN(Cc2cc3c(c(C(F)(F)F)c2)CN(c2cccc([C@]4(Cc5nncn5C)C[C@@H](C#N)C4)c2)C3=O)C1
*A* > 9.00

*Q* For the molecule shown here, C[C@@H]1CN(Cc2cc3c(c(C(F)(F)F)c2)CN(c2cccc([C@]4(Cc5nncn5C)C[C@@H](C#N)C4)c2)C3=O)CCC1(F)F , give the reported pIC50.
*A* 8.30 to 9.00

---

STUDY SYSTEM: Cbl-b (Homo sapiens (Human))
METHOD DESCRIPTION: Cbl-b displacement assay (Cbl-b inhibition assay), Biological Example 12
Type: binding
SETUP CONDITIONS: 0.5 nM Cbl-b final concentration (High), Table 7; read-out: Cbl-b IC50 (High)
MEASUREMENT LABEL: IC50

*Q* Which IC50 value is on record for Cc1cc(C(=O)Nc2cccc([C@]3(Cc4nncn4C)C[C@@H](C#N)C3)c2)nc(C2CC2)n1 ?
*A* 1 to 5 nM

---

Measured IC50 values are reported for all entries that follow.
STUDY SYSTEM: UniProt:Q13191
METHOD DESCRIPTION: Cbl-b displacement assay (Cbl-b inhibition assay), Biological Example 1
Format: binding
SETUP CONDITIONS: read-out: IC50 values in the Cbl-b inhibition assay of Biological Example 1

Known results for compounds:
In [3]: df
Out[3]:
                                   compound  experimental_result
0  Cn1cnnc1C[C@]1(c2cccc(N3Cc4c(cc(CNC5CC6C(C5)C6(F)F)cc4C(F)(F)F)C3=O)c2)C[C@H](C#N)C1 (stereo partly drawn) [Compound 12]               < 1 nM
1  CN(Cc1cc2c(c(C(F)(F)F)c1)CN(c1cccc([C@]3(Cc4nncn4C)C[C@@H](C#N)C3)c1)C2=O)C1CC(F)(F)C1 [Compound 22]            2 to 5 nM

Then this compound:
*Q* Find the recorded IC50 belonging to Cc1cc(C(=O)Nc2cccc([C@]3(Cc4nncn4C)C[C@@](C)(C#N)C3)c2)nc(C2CC2)n1 [Compound 8] and report it.
*A* ≥ 20 nM
